Source: PubChem BioAssay (NCATS)

# experimental target: Cytochrome P450 2C9 (Homo sapiens) (UniProt P11712)
# Sequence (P11712 whole entry, looked up): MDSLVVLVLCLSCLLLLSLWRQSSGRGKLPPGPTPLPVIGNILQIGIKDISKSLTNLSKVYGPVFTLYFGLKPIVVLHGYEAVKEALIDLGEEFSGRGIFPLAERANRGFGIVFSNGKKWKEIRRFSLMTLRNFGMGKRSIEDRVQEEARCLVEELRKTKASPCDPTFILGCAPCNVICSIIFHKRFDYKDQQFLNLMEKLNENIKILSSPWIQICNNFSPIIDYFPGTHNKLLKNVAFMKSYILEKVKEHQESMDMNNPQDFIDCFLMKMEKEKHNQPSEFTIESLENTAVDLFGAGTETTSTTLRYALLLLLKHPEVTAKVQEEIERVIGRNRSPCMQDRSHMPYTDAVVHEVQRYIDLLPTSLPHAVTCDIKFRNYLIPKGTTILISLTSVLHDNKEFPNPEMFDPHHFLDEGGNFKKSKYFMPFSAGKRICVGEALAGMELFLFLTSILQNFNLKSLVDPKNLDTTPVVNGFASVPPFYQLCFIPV
# assay: Cytochrome P450 family 2 subfamily C member 9 (CYP2C9) small molecule antagonists: luciferase biochemical (cell-free) qHTS assay (AID 1645842); note: nearly all actives have a fitted effect of over 55% in size
# assay context: P450-Glo CYP2C9 enzyme assay, luciferin luminescence; series mostly up to 57.4 µM
Records with an inconclusive call do not appear. The source made the active and inactive calls. Calls come from the whole dose curve; as a rule, active = well fitted inhibition curve with a large enough effect in the repeat runs; inconclusive = weak or mixed curves; inactive = no such curve, though single readings can be large or run the other way.
Thanks in advance; please answer with one of these: true (1) = active, false (0) = inactive

See these solved cases before continuing.
**Query** Tell me the assay call for COc1ccc(S(=O)(=O)N2c3ccc(Cl)cc3[C@@](O)(c3ccccc3Cl)[C@H]2C(=O)N2CCC[C@@H]2C(N)=O)cc1OC please.
**Result** true (1)

**Query** Here is the next molecule: CCO[C@@H]1O[C@H](C(COCc2ccccc2)OCc2ccccc2)[C@H](OCc2ccccc2)[C@H]1O (some centres not stated)
**Result** true (1)

**Query** Please do the same for CCCCCCCCOc1ccc(C(=O)c2ccccc2)c(O)c1 as well.
**Result** false (0)

**Query** Another molecule to look at: Cc1cc(NS(=O)(=O)c2ccc(N)cc2)nc(C)n1
**Result** false (0)

**Query** Note, next up: CCOc1ccccc1OCCN[C@H](C)Cc1ccc(OC)c(S(N)(=O)=O)c1
**Result** false (0)

**Query** Field entry: CNCCc1ccccn1
**Result** false (0)

**Query** CN1CCN(c2c(F)cc3c(=O)c(C(=O)O)cn4c3c2SCC4)CC1 ?
**Result** false (0)

**Query** Check COc1cc(C)nc(-n2nc(C)cc2OC)n1 too.
**Result** false (0)

**Query** Same question, CCCCCCCCCCCCCC(=O)OC(C)C this time
**Result** false (0)

**Query** // repeat for Cc1cccc(C)c1NC(=O)c1ccccc1C(=O)O and report
**Result** false (0)

Continuing:
**Query** Hey, what did the test say about CCCCCCCCCCCCCCCC(=O)O ?
**Result** false (0)

**Query** Field entry: O=C(CCCN1CC=C(n2c(=O)[nH]c3ccccc32)CC1)c1ccc(F)cc1
**Result** false (0)
